These measurements were taken from patent US20240270741A1.

- measurement_target: FGFR2 V564I (Homo sapiens, UniProt P21802, V564I)
- Sequence (P21802 399-821 V564I limits assumed): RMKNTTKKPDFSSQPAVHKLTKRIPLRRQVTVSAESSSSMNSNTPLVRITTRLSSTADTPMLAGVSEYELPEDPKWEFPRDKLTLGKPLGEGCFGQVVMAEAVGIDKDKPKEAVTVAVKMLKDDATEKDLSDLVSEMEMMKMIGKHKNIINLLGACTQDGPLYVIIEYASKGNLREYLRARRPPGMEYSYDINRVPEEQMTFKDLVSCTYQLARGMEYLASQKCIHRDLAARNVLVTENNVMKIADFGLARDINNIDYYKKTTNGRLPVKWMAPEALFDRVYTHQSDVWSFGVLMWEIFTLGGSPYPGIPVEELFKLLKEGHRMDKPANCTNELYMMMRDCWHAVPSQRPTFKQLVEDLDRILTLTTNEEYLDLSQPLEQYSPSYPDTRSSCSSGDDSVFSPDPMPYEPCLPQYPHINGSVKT
- assay_remarks: FGFR mutant enzyme assay (HTRF KinEASE-TK), FGFR2 V564I
- setup_conditions: Table 4
Record form. Attribute: IC50. Fill in for each entry.
Report the value in nM with no unit label.

Prompt: Data request, read-out IC50, for `Cc1nc(Sc2cc(-c3cnn(C4CCN(C)CC4)c3C)cn3ncc(C#N)c23)ccc1F`
Completion: 12

Prompt: Data request, read-out IC50, for `CN[C@H]1CC[C@@H](n2ncc(-c3cc(Sc4ccccc4C#N)c4c(C#N)cnn4c3)c2C)CC1`
Completion: 1

Prompt: Data request, read-out IC50, for `N#Cc1cnn2cc(-c3cnn([C@H]4CCCNC4)c3)cc(Sc3ccccn3)c12`
Completion: 6

Prompt: Data request, read-out IC50, for `Cc1c(-c2cc(Sc3cccc(F)c3C#N)c3c(C#N)cnn3c2)cnn1C1CCNCC1`
Completion: 5
